testedOn: Kv1.1-1.1-1.2-1.2 (forward adjacent channel) (Rattus norvegicus, UniProt P10499+P63142)
Construct: nucleic acids encoding the full-length Kv subunit; inter-subunit linker to next subunit (region from Xenopus beta-globin UTRs); expressed in transfected cells; host or cells: HEK-293 (pIRES2-EGFP vector)
Sequence (P10499 whole entry): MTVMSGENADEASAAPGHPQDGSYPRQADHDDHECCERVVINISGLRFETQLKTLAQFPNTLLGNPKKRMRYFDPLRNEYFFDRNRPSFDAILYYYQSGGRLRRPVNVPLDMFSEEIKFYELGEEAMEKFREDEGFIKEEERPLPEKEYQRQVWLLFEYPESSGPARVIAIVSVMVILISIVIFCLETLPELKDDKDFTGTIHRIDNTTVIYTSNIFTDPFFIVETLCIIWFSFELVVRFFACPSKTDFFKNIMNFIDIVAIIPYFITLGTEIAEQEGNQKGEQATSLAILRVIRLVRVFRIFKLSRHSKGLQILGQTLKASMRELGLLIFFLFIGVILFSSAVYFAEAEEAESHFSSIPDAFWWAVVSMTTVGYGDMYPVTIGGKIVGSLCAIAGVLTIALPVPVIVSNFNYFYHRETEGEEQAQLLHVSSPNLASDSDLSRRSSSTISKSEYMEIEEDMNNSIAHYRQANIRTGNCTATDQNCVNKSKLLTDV
Sequence (P10499 whole entry): as above
Sequence (P63142 whole entry): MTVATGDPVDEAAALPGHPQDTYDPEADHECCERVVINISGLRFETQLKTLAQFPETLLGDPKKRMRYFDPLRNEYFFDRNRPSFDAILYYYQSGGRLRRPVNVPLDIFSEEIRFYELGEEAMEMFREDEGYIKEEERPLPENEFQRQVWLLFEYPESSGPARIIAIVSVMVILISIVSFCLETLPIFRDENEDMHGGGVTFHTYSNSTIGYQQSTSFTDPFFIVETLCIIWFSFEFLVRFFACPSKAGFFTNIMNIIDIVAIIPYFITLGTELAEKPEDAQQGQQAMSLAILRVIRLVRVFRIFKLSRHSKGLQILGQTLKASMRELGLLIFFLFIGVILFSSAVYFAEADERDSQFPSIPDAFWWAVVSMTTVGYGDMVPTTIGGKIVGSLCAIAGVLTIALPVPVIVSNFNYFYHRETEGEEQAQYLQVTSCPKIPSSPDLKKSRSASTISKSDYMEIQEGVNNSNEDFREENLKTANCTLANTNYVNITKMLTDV
Sequence (P63142 whole entry): as above
assayText: Whole-cell voltage-clamp (QPatch) inhibition of K+ current, adjacent channel
Format: cell-based
assaySetup: HEK-293 cells, holding −100 mV, depolarised to +60 mV; read-out: IC50 TEA
pIC50: −log10 of the molar value.

{"compound": "CC[N+](CC)(CC)CC [TEA, tetraethylammonium]", "pIC50": 2.01}
